Reference for the values: PubChem BioAssay AID488969

# Assayed target: Metabotropic glutamate receptor 8 (Rattus norvegicus)
# Assay: mGluR8 Gi/Go-coupled signaling modulation – cell-based, rat, thallium flux, HTS, primary screen (AID 488969)
# Condition parameters: HEK293 rat mGluR8, GIRK (G protein-gated inwardly rectifying potassium channel) thallium flux, FluoZin2; at 10 µM; stronger effect = higher value; submaximal glutamate (EC20) added with thallium
Over roughly 110,000 compounds, “z-score” has its median near -0.1; the highest 2% begin near 2. This is one part of a sample in which the highest values are shown more often than they occur.
As shown below, each of these compounds has a reported z-score value.

[
  {
    "Compound": "Cc1ccc(NC(=O)c2sc3nc4c(c(-c5ccco5)c3c2N)CCC4)cc1",
    "z-score": -0.382
  },
  {
    "Compound": "Cc1ccc(-c2nc3cnccn3c2Nc2c(C)cccc2C)o1",
    "z-score": -0.399
  },
  {
    "Compound": "Cc1ccc(-c2nc3cnccn3c2Nc2ccccc2)o1",
    "z-score": -0.467
  },
  {
    "Compound": "O=C(/C=C/c1ccccc1)c1cc(Br)ccc(=O)c1O",
    "z-score": 14
  },
  {
    "Compound": "CCC1(C)C(Nc2c(C)cccc2C)=NC(=S)N1c1ccc(NC(C)=O)cc1 (stereo unspecified)",
    "z-score": -0.38
  },
  {
    "Compound": "Cc1sc(-n2c(C)cc(/C=C3\\SC(=S)NC3=O)c2C)c(C#N)c1C",
    "z-score": 2.26
  },
  {
    "Compound": "Cc1cccc(C)c1NC1=NC(=S)N(c2ccc(N(C)C)cc2)C1(C)C",
    "z-score": 1.87
  },
  {
    "Compound": "Cc1cc(/C=C2\\SC(=S)NC2=O)c(C)n1C",
    "z-score": -0.121
  },
  {
    "Compound": "Cc1cccc(N2C(=S)N=C(Nc3c(C)cccc3C)C23CCOC(C)(C)C3)c1 (stereo unspecified)",
    "z-score": -0.179
  },
  {
    "Compound": "CCn1c(C)cc(/C=C2/SC(=S)NC2=O)c1C",
    "z-score": 0.271
  },
  {
    "Compound": "Cc1ccc(Nc2c(-c3ccc(C)o3)nc3cnccn23)cc1",
    "z-score": 2.11
  }
]
